Data provenance is PubChem BioAssay (NCATS).

Listed here are compounds together with their documented viability change, negative = cytotoxic.
Assay: Cell Viability - SH-SY5Y (AID 544);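 note: cells exposed to compound for 40 hours; 0% = DMSO alone and -100% = 100 µM tamoxifen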
Condition Details: SH-SY5Y neuroblastoma cell viability; at 92.2 µM (top of the series)
Records with an inconclusive call do not appear.
Property: viability change, negative = cytotoxic (%)

>  <Query Smiles>
CCOc1ccccc1C(N)=O

>  <Property>
viability change, negative = cytotoxic

>  <Unit Annotation>
%

>  <Reading>
-2.76

$$$$
>  <Query Smiles>
COc1ccc(C(Cl)=C(c2ccc(OC)cc2)c2ccc(OC)cc2)cc1

>  <Property>
viability change, negative = cytotoxic

>  <Unit Annotation>
%

>  <Reading>
-10.7

$$$$
>  <Query Smiles>
COc1ccc(C(=O)c2ccccc2)c(O)c1

>  <Property>
viability change, negative = cytotoxic

>  <Unit Annotation>
%

>  <Reading>
-8.89

$$$$
